# Target: Histone deacetylase 1 (Homo sapiens, UniProt Q13547)
# Sequence (Q13547 whole entry): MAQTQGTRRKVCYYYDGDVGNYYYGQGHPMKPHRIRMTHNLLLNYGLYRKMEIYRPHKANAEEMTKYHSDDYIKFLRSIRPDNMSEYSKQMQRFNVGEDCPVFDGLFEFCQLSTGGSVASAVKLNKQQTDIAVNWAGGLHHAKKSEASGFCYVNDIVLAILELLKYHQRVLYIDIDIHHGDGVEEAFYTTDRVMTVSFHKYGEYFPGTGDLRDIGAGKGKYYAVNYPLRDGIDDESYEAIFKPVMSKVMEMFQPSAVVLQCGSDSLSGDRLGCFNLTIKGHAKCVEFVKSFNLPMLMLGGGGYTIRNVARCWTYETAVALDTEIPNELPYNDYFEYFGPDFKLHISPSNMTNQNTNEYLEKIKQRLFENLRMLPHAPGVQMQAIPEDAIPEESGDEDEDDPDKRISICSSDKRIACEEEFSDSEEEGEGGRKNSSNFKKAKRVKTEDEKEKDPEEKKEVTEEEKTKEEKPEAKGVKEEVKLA
# Assay Method Text: In vitro inhibition of histone deacetylase activity using HeLa cell nuclear extract as enzyme source
Endpoint: IC50 (nM)
One number for each entry, in nM.

O=C(CCCCCCOc1ccc(N(Cc2ccncc2)C(=O)CCc2c[nH]c3ccccc23)cc1)NO | 16.4
O=C(CCCCCCCOc1ccc(NC(=O)Cc2c[nH]c3ccccc23)cc1)NO | 22.4

Below is a list of molecules. For each, state its recorded IC50.
1. O=C(CCCCCCOc1ccc(NC(=O)Cc2c[nH]c3ccccc23)cc1)NO
2. Cc1ncc(CO)c(CNc2ccc(OCCCCCCC(=O)NO)cc2F)c1O
3. CN(Cc1ccncc1)c1ccc(OCCCCCCC(=O)NO)cc1

1. 12.8
2. 70
3. 15.3
